Where these numbers come from: the RNAGym collection of RNA variant scans (doi:10.7554/elife.80360)

B1: HDV Ribozyme (parent)
chain: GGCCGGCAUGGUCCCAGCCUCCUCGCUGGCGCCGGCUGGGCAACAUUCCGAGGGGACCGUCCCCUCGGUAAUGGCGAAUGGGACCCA

# Variants of: B1
# Experiment Summary: self-cleavage, relative activity (ratio to wild type); higher = more cleavage; co-transcriptional
Everything with self-cleavage lower than 0.5 is not fulfilled; everything else, including exactly 0.5, is fulfilled.

Look over these answered cases.
Item G59C G81A with self-cleavage of 0.5 or above?
fulfilled

Say whether G31A C86U shows self-cleavage of 0.5 or more.
fulfilled

Quick check: does G11A A51C have self-cleavage greater than or equal to 0.5?
fulfilled

Further cases:
Check the entry U47G A77C : does self-cleavage equal or exceed 0.5?
not fulfilled

Entry G6U C44U : is its self-cleavage no less than 0.5?
not fulfilled

Item G5C U46A with self-cleavage of 0.5 or above?
not fulfilled
